- Assayed system: Histone deacetylase 4 (Homo sapiens) (UniProt P56524)
- Sequence (P56524 whole entry): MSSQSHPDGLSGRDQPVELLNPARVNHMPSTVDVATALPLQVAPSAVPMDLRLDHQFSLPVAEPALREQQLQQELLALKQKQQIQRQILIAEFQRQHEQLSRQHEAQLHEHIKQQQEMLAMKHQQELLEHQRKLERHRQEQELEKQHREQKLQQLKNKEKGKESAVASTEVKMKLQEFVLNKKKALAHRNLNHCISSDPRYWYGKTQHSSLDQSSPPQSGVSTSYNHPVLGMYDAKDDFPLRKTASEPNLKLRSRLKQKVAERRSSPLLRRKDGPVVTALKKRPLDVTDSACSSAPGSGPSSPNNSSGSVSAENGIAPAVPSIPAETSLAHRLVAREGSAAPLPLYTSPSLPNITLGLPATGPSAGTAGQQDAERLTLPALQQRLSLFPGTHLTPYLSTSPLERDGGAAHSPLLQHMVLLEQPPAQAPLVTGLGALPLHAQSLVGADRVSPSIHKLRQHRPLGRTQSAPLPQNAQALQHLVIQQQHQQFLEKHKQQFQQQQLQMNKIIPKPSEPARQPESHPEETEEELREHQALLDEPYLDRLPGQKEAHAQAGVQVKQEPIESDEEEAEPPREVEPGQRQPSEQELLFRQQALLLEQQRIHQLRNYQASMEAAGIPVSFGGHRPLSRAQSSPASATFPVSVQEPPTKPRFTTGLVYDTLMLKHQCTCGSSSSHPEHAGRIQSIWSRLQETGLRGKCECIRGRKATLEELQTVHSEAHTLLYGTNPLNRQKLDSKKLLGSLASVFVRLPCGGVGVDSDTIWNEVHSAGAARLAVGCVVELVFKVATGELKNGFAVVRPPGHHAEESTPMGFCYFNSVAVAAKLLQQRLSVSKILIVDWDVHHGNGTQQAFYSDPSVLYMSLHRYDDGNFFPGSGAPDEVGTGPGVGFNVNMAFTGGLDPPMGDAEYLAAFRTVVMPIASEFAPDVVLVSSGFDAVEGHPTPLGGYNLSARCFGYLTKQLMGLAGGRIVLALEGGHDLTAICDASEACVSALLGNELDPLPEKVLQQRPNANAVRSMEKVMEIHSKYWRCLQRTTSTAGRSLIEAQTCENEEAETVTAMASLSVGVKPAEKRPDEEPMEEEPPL
- Method notes: Inhibition of HDAC4 in human U937 cells at 5 uM […]
- Assay type: cell-based
- Condition label: U-937
Calls of active or inactive are those of the source. No cut-off for these calls is given here.
Quantity name: inhibition

Check out these entries, answers already filled in.
- Chem smiles: "O=C(NCCCCCSSCCCCCNC(=O)/C(Cc1c[nH]c2ccc(Br)cc12)=N/O)/C(Cc1c[nH]c2ccc(Br)cc12)=N/O"
  inhibition: "20%"
- Chem smiles: "O=C(NCCSSCCNC(=O)/C(Cc1c[nH]c2ccc(F)cc12)=N/O)/C(Cc1c[nH]c2ccc(F)cc12)=N/O"
  inhibition: "Active"
- Chem smiles: "CSCCNC(=O)/C(Cc1c[nH]c2ccc(Br)cc12)=N/O"
  inhibition: "20%"
- Chem smiles: "O=C(NCCSSCCNC(=O)/C(Cc1c[nH]c2ccc(OCc3ccccc3)cc12)=N/O)/C(Cc1c[nH]c2ccc(OCc3ccccc3)cc12)=N/O"
  inhibition: "Active"
- Chem smiles: "O=C(NCCSSCCNC(=O)/C(Cc1c[nH]c2cc(Br)ccc12)=N/O)/C(Cc1c[nH]c2cc(Br)ccc12)=N/O"
  inhibition: "40%"
- Chem smiles: "O=C(NCCSSCCNC(=O)/C(Cc1c[nH]c2ccc(Cl)cc12)=N/O)/C(Cc1c[nH]c2ccc(Cl)cc12)=N/O"
  inhibition: "Active"
- Chem smiles: "O=C(NCCCCSSCCCCNC(=O)/C(Cc1c[nH]c2ccc(Br)cc12)=N/O)/C(Cc1c[nH]c2ccc(Br)cc12)=N/O"
  inhibition: "20%"
- Chem smiles: "O=C(NCCSSCCNC(=O)/C(Cc1c[nH]c2ccc(I)cc12)=N/O)/C(Cc1c[nH]c2ccc(I)cc12)=N/O"
  inhibition: "Active"

Check the records and state inhibition for O=C(NCCSSCCNC(=O)/C(Cc1c[nH]c2c(Br)cccc12)=N/O)/C(Cc1c[nH]c2c(Br)cccc12)=N/O
40%

The measurements presented in this section are drawn from ChEMBL document CHEMBL2177007.
